FYI, the data here is from PubChem BioAssay AID485273.

Let's look at some compounds and their measured inhibition.
target: Ubiquitin-conjugating enzyme E2 N (Homo sapiens); experiment: UBC13 polyubiquitin chain formation inhibitors, primary screen, biochemical, TR-FRET, uHTS (AID 485273); conditions: at 20 µM, active compounds read high
The whole screen tested about 330,000 compounds, of which about 1,500 (0.45%) were called active. This excerpt belongs to a sample that is enriched for actives.
// note: answer is a bare numeric in %

Take a look at these entries with their results.
> print(dat)
                                   compound  experimentalvalue
1  COc1ccc(C(F)(F)F)cc1N/C=C\c1nnnn1-c1ccc(C)cc1                4.1
2  O=C(CCCCCN1C(=O)c2cccc3cccc(c23)C1=O)NCc1ccco1               57.4
3         CN1CCC(CN)(N2CCN(c3ccccc3)CC2)CC1               57.8

Which value of inhibition has been reported for CCCCCCCC1(C)NC(=O)N(CC(=O)Nc2cc(C)on2)C1=O (configuration not stated) in the records? 3.7

Given the compound COc1ccc(C(CNC(=O)c2ccc(NS(=O)(=O)c3ccc(F)c(C)c3)cc2)N(C)C)cc1 (configuration not stated) , what is its reported inhibition? 40.3

Would you mind telling me what inhibition value was observed for "Cc1cccc(CNS(=O)(=O)c2ccc(-c3cnc(C4CC4)o3)cc2)c1" ? -0.4

Which value of inhibition has been reported for "COc1ccnc2c1c(=O)n(Cc1cccc(F)c1)c(=O)n2C" in the records? 48.2

Could you share which inhibition value was measured for CCn1ncc(CNC(=O)C2(C)CC2(Br)Br)c1C (configuration not stated) ? -4.3

---

target: Ubiquitin-conjugating enzyme E2 N (Homo sapiens) (UniProt P61088); assay: UBC13 polyubiquitin chain formation inhibitors, primary screen, biochemical, TR-FRET, uHTS (AID 485273); conditions: at 20 µM
Sequence (P61088 whole entry, looked up): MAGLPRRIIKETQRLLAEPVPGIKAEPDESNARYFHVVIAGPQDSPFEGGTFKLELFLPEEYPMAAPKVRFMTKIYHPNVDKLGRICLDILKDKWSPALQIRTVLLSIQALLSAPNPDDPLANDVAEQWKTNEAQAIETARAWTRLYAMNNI
Out of some 330,000 compounds screened, about 1,500 (0.45%) were called active. No stated cut-off is given here; in the data, active means inhibition above about 45% (passing the limit was not always enough); inconclusive means no clear call, values can overlap the other calls. This excerpt belongs to a sample that is enriched for actives.
Can you answer with just one of these options? 1 (yes) for active, 0 (no) for inactive

> print(dat)
                                   compound  assignedclass
1  CC1CN(C(=O)CCC(=O)NCCCN2CCC(Cc3ccccc3)CC2)c2cc(Cl)ccc2O1 (centres undefined)        1 (yes)
2            NCC(=O)c1cccc2ccc[n+]([O-])c12         0 (no)
3  O=C(NNC(=S)Nc1ccccc1)c1cccc(S(=O)(=O)N2CCOCC2)c1         0 (no)

API: the following record is the query input.
Record request — test call for CC(c1ccco1)N(C(=O)COc1ccccc1[N+](=O)[O-])c1ccccn1 (centres undefined) 0 (no)

---

target: Ubiquitin-conjugating enzyme E2 N (Homo sapiens); experiment: UBC13 polyubiquitin chain formation inhibitors, primary screen, biochemical, TR-FRET, uHTS (AID 485273); details: at 20 µM, active compounds read high
Hit rate of the full screen: of about 330,000 compounds, about 1,500 (0.45%) were called active. The full list was thinned out, with actives kept by preference.
Overview of recorded inhibition for various molecules
Quick reminder: number only, in %, skip the unit.

molecule	property	experimentalValue
C#CCOCCOCCOCCNc1nc(N2CCN(C(=O)[C@H](CCC(=O)O)n3cc(C(N)CO)nn3)CC2)nc(N2CCN(C(=O)[C@H](CCCCN)n3cc(C(N)[C@H](C)CC)nn3)CC2)n1 (stereo partly specified)	inhibition	5.8

Moving on to another molecule below.
# get_value(readout='inhibition', item= "CCSCc1nc(N)nc(NCCc2ccccc2)n1" ) 8.1

---

biological target: Ubiquitin-conjugating enzyme E2 N (Homo sapiens) (UniProt P61088); test: UBC13 polyubiquitin chain formation inhibitors, primary screen, biochemical, TR-FRET, uHTS (AID 485273); details: at 20 µM
The campaign covered roughly 330,000 compounds. About 1,500 (0.45%) were called active. No stated cut-off is given here; in the data, active means inhibition above about 45% (passing the limit was not always enough); inconclusive means no clear call, values can overlap the other calls. What follows is part of a selection rich in actives, with near analogues and random picks from the rest.
Outcome field: choose from active, inactive

> print(dat)
                                   compound  assignedclass
1  COc1ccc(C(CNC(=O)c2cccc(NS(=O)(=O)c3ccc(C)c(F)c3)c2)N2CCCC2)cc1 (centres undefined)         active
2  CCCCN(CCCC)CCC(O)c1cc2c(Cl)cc(Cl)cc2c2cc(C(F)(F)F)ccc12 (centres undefined)         active
3  CC(C)c1ccccc1OCC(O)CN(CC(O)COc1cccc2ccccc12)C(C)C (centres undefined)       inactive

Attention now shifts to the item below.
Outcome logged for Cc1cc(C)n(CC(O)CN(c2ccccc2)S(=O)(=O)c2ccc3ccccc3c2)n1 (centres undefined) in this assay: inactive

---

biological target: Ubiquitin-conjugating enzyme E2 N (Homo sapiens) (UniProt P61088); assay: UBC13 polyubiquitin chain formation inhibitors, primary screen, biochemical, TR-FRET, uHTS (AID 485273); conditions: at 20 µM
About 1,500 (0.45%) of roughly 330,000 compounds were called active. Rule as the data show it: active = inhibition above about 45% (passing the limit was not always enough); inconclusive = no clear call, values can overlap the other calls. The sample as a whole holds a higher share of actives than the screen did.
Choose one outcome from this list and give only that: yes (1) for active, no (0) for inactive

Observe how each entry below is paired with its result.
compound	assignedClass
O=C(NNC(=O)c1ccc(Cl)nc1)c1ccc(Br)cc1	no (0)
S=C(Cc1ccc(Cl)cc1)N1CCOCC1	no (0)
CCn1c(SCC(=O)NCC2CCCO2)nc2ccccc21 (centres undefined)	no (0)
COc1ccccc1C(=O)NC(CCSC)C(=O)NNC(=O)c1csc(N2CCOCC2)n1 (centres undefined)	no (0)
C#CCOCCOCCOCCNc1nc(N2CCN(C(=O)[C@H](CCC(=O)O)n3cc(C(N)CO)nn3)CC2)nc(N2CCN(C(=O)[C@H](Cc3ccc(O)cc3)n3cc(C(N)[C@H](C)CC)nn3)CC2)n1 (some centres undefined)	no (0)

What classification did COc1cccc(/C=C2\Sc3ccc(C(=O)NCC4CCCO4)cc3N(C)C2=O)c1 (centres undefined) end up with in this test? no (0)

Please state the recorded outcome for this compound: "CCCCOCCCNC(=O)c1ccccc1OCC" no (0)

Which outcome was assigned to CCN(CC)S(=O)(=O)c1ccc2[nH]c(=O)cc(C(=O)N(C)C3CCS(=O)(=O)C3)c2c1 (centres undefined) in this test? no (0)

Per the assay record, what outcome was assigned to "CCCOc1ccc(Cl)cc1Nc1nc(NCCO)nc(N2CCCC2)n1" ? yes (1)

What is the recorded call for this compound in the test? "O=C(CN1CCSCC1)N/N=C/c1ccc(Cl)cc1" no (0)

For "CCOCCCNC(=O)c1cn(CC(C)C)c(=O)c2c1c1ccccc1n2C" , which call appears in the assay record? yes (1)

Could you check what this test reported for "COCCCNC(=O)Cn1cc(C(=O)C2CC2)c2ccccc21" ? no (0)

Which result was noted for this compound in the test: C#CCOCCOCCOCCNc1nc(N2CCN(C(=O)[C@H](Cc3ccc(O)cc3)n3cc(C(N)CC(C)C)nn3)CC2)nc(N2CCN(C(=O)[C@H](CCC(=O)O)n3cc(C(N)[C@H](C)CC)nn3)CC2)n1 (some centres undefined) no (0)

So what was the verdict on OC(CNCC1CCCO1)Cn1c2ccc(Br)cc2c2cc(Br)ccc21 (centres undefined) in this test? yes (1)

Hi team, can someone confirm the assay call for "COC(=O)c1ccc(CNC(=O)c2ccc3oc(C(C)C)nc3c2)cc1" ? no (0)

Please indicate how the test categorized Cc1ccc(NC(=O)c2cnc(SCC(=O)NCC3CCCO3)n(C)c2=O)cc1 (centres undefined) . yes (1)

Recorded call for "Cn1c(SCC(=O)C(C)(C)C)nnc1-c1ccccn1" ? no (0)

Name the outcome recorded for Cc1c(C(=O)N2CCCC2)c(S(=O)(=O)NCC(C)c2ccccc2)c(C)n1C (centres undefined) in the assay. no (0)

Short answer needed: outcome of this test for "COc1ccc(S(=O)(=O)N2CCN(CC(=O)NCC3(N4CCOCC4)CCCCC3)CC2)cc1" ? no (0)
